Tested System: pre-pro-insulin glargine
Measured Metric: desArg (area %)

INSERT INTO measurements (protein, measured_metric, units_text, bound_sign, measurement) VALUES
  ('trypsin variant SEQ ID NO: 24 (protein) IVGGYTCAANSIPYQVSLNSGSHRCGGSLINSQWVVSAAHCYKSRIQVRLGEHNIDVLEGNEQFINAAKIITHPNFNGNTLDNDIMLIKLSSPATLNSRVATVSLPRSCAAAGTECLISGWGNTKSSGSSYPSLLQCLKAPVLSDSSCKSSYPGQITGNMICVGFLEGGYDACQGDSGGPVVCNGQLQGIVSSGYGCAQKNKPGVYTKVCNYVNWIQQTIAAN', 'desArg', 'area %', '<', 0.5),
  ('trypsin variant SEQ ID NO: 78 (protein) IVGGYTCAANSIPYQVSLNSGSHRCGGSLINSQWVVSAAHCYKSRIQVRLGEHNIHVLEGNEQFINAAKIITHPNFNPNTLDNDIMLIKLSSPATLNSHVATVSLPTSCAAAGTECLISGWGNTCSSGSSYPSLLQCLKAPVLSDSSCKSSYPGQITGNMICVGFLEGGKDACQGDSGGPVVCNGQLQGIVSSGYGCAQKNKPGVYTKVCNYVNWIQQTIAAN', 'desArg', 'area %', '=', 0.5),
  ('trypsin variant SEQ ID NO: 86 (protein) IVGGYTCAANSIPYQVSLNSGSHRCGGSLINSQWVVSAAHCYKPRIQVRLGEHNIDVLEGNEQFINAAKIITHPNFNPNTLDNDIMLIKLSSPATLNSAVATVSLPTSCAAAGTECLISGWGNTSSSGSSMPSLLQCLKAPVLSDSSCKSSYPGQITGNMICVGFLEGGKDACQGDSGGPVVCNGQLQGIVSSGYGCAQKNKPGVYTKVCNYVNWIQQTIAAN', 'desArg', 'area %', '=', 0.8),
  ('trypsin variant SEQ ID NO: 104 (protein) IVGGYTCAANSIPYQVSLNSGSHRCGGSLINSQWVVSAAHCYKSRIQVRLGEHNIHVLEGNEQFINAAKIITHPNFNPNTLDNDIMLIKLSSPATLNSNVATVSLPTSCAAAGTECLISGWGNTCSSGSSMPSLLQCLKAPVLSDSSCKSSYPGQITGNMICVGFLEGGADACQGDSGGPVVCNGQLQGIVSSGYGCAQKNKPGVYTKVCNYVNWIQQTIAAN', 'desArg', 'area %', '=', 1.1),
  ('trypsin variant SEQ ID NO: 57 (protein) IVGGYTCAANSIPYQVSLNSGSHRCGGSLINSQWVVSAAHCYKSRIQVRLGEHNIHVLEGNEQFINAAKIITHPNFNGNTLDNDIMLIKLSSPATLNSRVATVSLPRSCAAAGTECLISGWGNTKSSGSSYPSLLQCLKAPVLSDSSCKSSYPGQITGNMICVGFLEGGKDACQGDSGGPVVCNGQLQGIVSSGYGCAQKNKPGVYTKVCNYVNWIQQTIAAN', 'desArg', 'area %', '<', 0.5);
